Each entry below carries its recorded INHIBITION.
Tested on: Plasmodium berghei
experimental_details: Screen against P. berghei liver stage (PbLuc), transformed with Luciferase, at 10uM
Assay type: functional, HepG2
experimental_parameters: tested at 10 uM
The campaign covered roughly 69,000 compounds. About 8,600 (12%) showed an effect of 50% or more. The sample holds strong results, similar compounds and a random draw of the others, so the mix is not that of the screen.
readout: INHIBITION (%)

compound | readout | endpoint_result
Cc1ccc(CNc2ccc(N3CCC(CO)CC3)cn2)o1 | INHIBITION | 14.1
CCCc1noc(CCC(=O)N2CCCC2c2cccc(OC)c2)n1 (stereo unspecified) | INHIBITION | -34
O=C([C@H]1C[C@@H]2CCN(c3cccc(F)c3)C[C@H]2O1)N1CCCCO1 | INHIBITION | 23.3
CCn1cnnc1CNC(=O)N1CCN(Cc2ccco2)CC1 | INHIBITION | -2.19
CC(C)c1nc(CNc2ccc(N3CCC(CO)CC3)cn2)cs1 | INHIBITION | 13
CNC(=O)[C@@H]1[C@H]2CN(Cc3ccoc3)CCN2C[C@H]1c1ccccc1 | INHIBITION | 9.36
COc1nn(C)c2c1CCCN(C(=O)c1cccc(C)n1)C2 | INHIBITION | 31.2
CN(C)Cc1ccnc(NS(=O)(=O)Cc2cccc(F)c2)c1 | INHIBITION | 27
CNC(=O)[C@@H]1[C@@H](c2ccccc2)CN2CCN(Cc3cccs3)C[C@H]12 | INHIBITION | 41.1
O=C(NCCCO)c1nnsc1-c1ccccc1 | INHIBITION | 46.6
CCOCCC(=O)N1CCc2cccc(S(=O)(=O)N3CCOCC3)c2C1 | INHIBITION | 53.9
